# Measurement Protocol: Mouse oral PK study
# Format: in vivo, male C57BI/6 mice
# Settings: male, C57BI/6, IV, single 2 mg/kg, plasma
Experimental Endpoint: clearance (mL/min/kg)

* COc1cc(C2CCN(CC3CN(c4ccc5c(c4)C(=O)N(C4CCC(=O)NC4=O)C5=O)C3)CC2)c(C)cc1Nc1ncc(Cl)c(Nc2ccccc2S(=O)(=O)C(C)C)n1 (stereo not shown) | 7.73

----------
# Measurement Protocol: Mouse oral PK study
# Format: in vivo, male C57BI/6 mice
# Settings: male, C57BI/6, 10 mg/kg, PO, single dose, plasma
Experimental Endpoint: AUC(0-t) (µM·h)

• COc1cc(C2CCN(CC3CN(c4ccc5c(c4)C(=O)N(C4CCC(=O)NC4=O)C5=O)C3)CC2)c(C)cc1Nc1ncc(Cl)c(Nc2ccccc2S(=O)(=O)C(C)C)n1 (stereo not shown) = 6.73
